# ASSAY DETAILS: Micafungin concentrations in cerebrospinal fluid of infants with Candida meningitis (HPLC)
# Format: in vivo
# CONDITION LABEL: human, cerebrospinal fluid, iv, 7 mg/kg/day, Patient 1, dose 7 mg/kg/day iv; HPLC; read-out: CSF values before infusion
*1 amine or outer side, *2 acyl side, *3 side chain or, on linkers, in order; H or OH if unused. Where a SMILES comes first, the peptide text is derived from it. Bridges are numbered along the chain shown (N, C = ends). [ ]: non-standard residue; d: D form. The star is where a group is joined. hTyr(3S-OH,4S-OH,3'-OSO3H) = N[C@H](C(=O)O)[C@H](O)[C@@H](O)c1ccc(O)c(OS(=O)(=O)O)c1; Orn(4R-OH,5R-OH) = O=C([C@H](C[C@@H](O)[C@@H](O)N[*:3])N[*:1])[*:2]; Pro(3S-OH,4S-Me) = C[C@H]1CN[C@H](C(=O)O)[C@H]1O; X1 = CCCCCOc1ccc(-c2cc(-c3ccc(C(=O)*)cc3)no2)cc1; Gln(3R-OH) = NC(=O)C[C@@H](O)[C@H](N)C(=O)O; Hyp = O=C(O)[C@@H]1C[C@@H](O)CN1

{"columns": ["COMPOUND", "level at -1 h, ng/mL"],
 "data": [
  ["CCCCCOc1ccc(-c2cc(-c3ccc(C(=O)N[C@H]4C[C@@H](O)[C@@H](O)NC(=O)[C@@H]5[C@@H](O)[C@@H](C)CN5C(=O)[C@H]([C@H](O)CC(N)=O)NC(=O)[C@H]([C@H](O)[C@@H](O)c5ccc(O)c(OS(=O)(=O)O)c5)NC(=O)[C@@H]5C[C@@H](O)CN5C(=O)[C@H]([C@@H](C)O)NC4=O)cc3)no2)cc1 [micafungin] (X1-[Orn(4R-OH,5R-OH)]T[Hyp][hTyr(3S-OH,4S-OH,3'-OSO3H)][Gln(3R-OH)][Pro(3S-OH,4S-Me)]; lactam 1-C)", 150]
]}

* * *

# ASSAY DETAILS: Micafungin plasma pharmacokinetics in neonates and young infants (HPLC)
# Type: in vivo, human
# CONDITION LABEL: human, iv, age >28 days ≤120 days (n = 23), 8-15 mg/kg/day iv over 1 h once daily, HPLC, mean ± SD, SD, read-out: Clearance (converted)
# Experimental: The dosage was formulated as a 2 mg/mL solution in 0.9% saline solution and administered intravenously over 1 h once daily. […] Micafungin plasma and CSF concentrations were measured 1 h before and 1, 2, and 8 h after the end of the infusion. […] Blood picked up was centrifuged at 3000× g, and the plasma residue was stored at 4 °C until analyzed within 6 h or frozen at −20 °C and analyzed within 7 days, as previously reported. […]
*1 amine or outer side, *2 acyl side, *3 side chain or, on linkers, in order; H or OH if unused. Where a SMILES comes first, the peptide text is derived from it. Bridges are numbered along the chain shown (N, C = ends). [ ]: non-standard residue; d: D form. The star is where a group is joined. hTyr(3S-OH,4S-OH,3'-OSO3H) = N[C@H](C(=O)O)[C@H](O)[C@@H](O)c1ccc(O)c(OS(=O)(=O)O)c1; Orn(4R-OH,5R-OH) = O=C([C@H](C[C@@H](O)[C@@H](O)N[*:3])N[*:1])[*:2]; Pro(3S-OH,4S-Me) = C[C@H]1CN[C@H](C(=O)O)[C@H]1O; X1 = CCCCCOc1ccc(-c2cc(-c3ccc(C(=O)*)cc3)no2)cc1; Gln(3R-OH) = NC(=O)C[C@@H](O)[C@H](N)C(=O)O; Hyp = O=C(O)[C@@H]1C[C@@H](O)CN1

{"columns": ["COMPOUND", "QUANTITY UNIT", "clearance"],
 "data": [
  ["CCCCCOc1ccc(-c2cc(-c3ccc(C(=O)N[C@H]4C[C@@H](O)[C@@H](O)NC(=O)[C@@H]5[C@@H](O)[C@@H](C)CN5C(=O)[C@H]([C@H](O)CC(N)=O)NC(=O)[C@H]([C@H](O)[C@@H](O)c5ccc(O)c(OS(=O)(=O)O)c5)NC(=O)[C@@H]5C[C@@H](O)CN5C(=O)[C@H]([C@@H](C)O)NC4=O)cc3)no2)cc1 [micafungin] (X1-[Orn(4R-OH,5R-OH)]T[Hyp][hTyr(3S-OH,4S-OH,3'-OSO3H)][Gln(3R-OH)][Pro(3S-OH,4S-Me)]; lactam 1-C)", "mL/min", 1.45]
]}

* * *

# ASSAY DETAILS: Micafungin concentrations in cerebrospinal fluid of infants with Candida meningitis (HPLC)
# Assay type: in vivo
# CONDITION LABEL: human, cerebrospinal fluid, iv, 15 mg/kg/day, Patient 2, dose 15 mg/kg/day iv; HPLC; read-out: CSF values after 8 h
*1 amine or outer side, *2 acyl side, *3 side chain or, on linkers, in order; H or OH if unused. Where a SMILES comes first, the peptide text is derived from it. Bridges are numbered along the chain shown (N, C = ends). [ ]: non-standard residue; d: D form. The star is where a group is joined. hTyr(3S-OH,4S-OH,3'-OSO3H) = N[C@H](C(=O)O)[C@H](O)[C@@H](O)c1ccc(O)c(OS(=O)(=O)O)c1; Orn(4R-OH,5R-OH) = O=C([C@H](C[C@@H](O)[C@@H](O)N[*:3])N[*:1])[*:2]; Pro(3S-OH,4S-Me) = C[C@H]1CN[C@H](C(=O)O)[C@H]1O; X1 = CCCCCOc1ccc(-c2cc(-c3ccc(C(=O)*)cc3)no2)cc1; Gln(3R-OH) = NC(=O)C[C@@H](O)[C@H](N)C(=O)O; Hyp = O=C(O)[C@@H]1C[C@@H](O)CN1
ATTRIBUTE MEASURED: level at 8 h

{"columns": ["MOLECULE", "VALUE REPORTED"],
 "data": [
  ["CCCCCOc1ccc(-c2cc(-c3ccc(C(=O)N[C@H]4C[C@@H](O)[C@@H](O)NC(=O)[C@@H]5[C@@H](O)[C@@H](C)CN5C(=O)[C@H]([C@H](O)CC(N)=O)NC(=O)[C@H]([C@H](O)[C@@H](O)c5ccc(O)c(OS(=O)(=O)O)c5)NC(=O)[C@@H]5C[C@@H](O)CN5C(=O)[C@H]([C@@H](C)O)NC4=O)cc3)no2)cc1 [micafungin] (X1-[Orn(4R-OH,5R-OH)]T[Hyp][hTyr(3S-OH,4S-OH,3'-OSO3H)][Gln(3R-OH)][Pro(3S-OH,4S-Me)]; lactam 1-C)", "800 ng/mL"]
]}
